Target: Serine/threonine-protein kinase Nek6 (Homo sapiens);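 also: values are mean inhibition of NEK6 from the GSK PKIS screen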
Settings: at 1 µM
reported property: inhibition (%)

- smiles entry: "CN1CCN(C(=O)c2ccc(NC(=O)Nc3ccc(N(C)c4ccnc(Nc5ccc(CS(C)(=O)=O)cc5)n4)cc3)cc2)CC1"
  unit info: "%"
  quantitative readout: -1.02
- smiles entry: "CN(c1ccc(NC(=O)Nc2ccc(OC(F)(F)F)cc2)cc1)c1ccnc(Nc2cccc(S(N)(=O)=O)c2)n1"
  unit info: "%"
  quantitative readout: 0.14
- smiles entry: "NC(=O)c1sc(-n2cnc3ccccc32)cc1OCc1ccccc1Br"
  unit info: "%"
  quantitative readout: 2.86
- smiles entry: "CCn1c(-c2nonc2N)nc2c(C#CC(C)(C)O)nc(OCCNC)cc21"
  unit info: "%"
  quantitative readout: 1.71
- smiles entry: "c1ccc(Nc2ncc(-c3ccccc3)o2)cc1"
  unit info: "%"
  quantitative readout: 0.47
- smiles entry: "Cc1ccc(Nc2ccnc(Nc3cccc(C(N)=O)c3)n2)cc1O"
  unit info: "%"
  quantitative readout: 2.69
- smiles entry: "Oc1cccc(-c2nc(-c3ccccc3)[nH]c2-c2ccncc2)c1"
  unit info: "%"
  quantitative readout: 4.45
- smiles entry: "CCS(=O)(=O)c1ccc(OC)c(Nc2nccc(N(C)c3ccc4c(C)n[nH]c4c3)n2)c1"
  unit info: "%"
  quantitative readout: 0.72
- smiles entry: "NS(=O)(=O)c1cccc(-c2cc3ccncc3cc2OCc2ccccc2)c1"
  unit info: "%"
  quantitative readout: -0.35
- smiles entry: "COc1ccc2ncnc(Nc3ccc(OCc4ccccc4)cc3)c2c1"
  unit info: "%"
  quantitative readout: 2.35

* * *

Target: Serine/threonine-protein kinase BRSK2 (Homo sapiens);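 also: values are mean inhibition of BRSK2 from the GSK PKIS screening dataset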
Settings: at 0.1 µM
reported property: inhibition (%)

- smiles entry: "Cc1ccc(NC(=O)CC2CC2)cc1-c1ccc(C(=O)NCC2CC2)cc1"
  assay target: "Serine/threonine-protein kinase BRSK2 (Homo sapiens)"
  reported property: "inhibition"
  quantitative readout: 1.82
- smiles entry: "CCn1c(-c2nonc2N)nc2ccc(F)cc21"
  assay target: "Serine/threonine-protein kinase BRSK2 (Homo sapiens)"
  reported property: "inhibition"
  quantitative readout: 1.78
- smiles entry: "CCOc1nccc2c1nc(-c1nonc1N)n2CC"
  assay target: "Serine/threonine-protein kinase BRSK2 (Homo sapiens)"
  reported property: "inhibition"
  quantitative readout: 7.65
- smiles entry: "CN(C)c1cc2c(Nc3ccc4c(cnn4Cc4ccccc4)c3)ncnc2cn1"
  assay target: "Serine/threonine-protein kinase BRSK2 (Homo sapiens)"
  reported property: "inhibition"
  quantitative readout: 2.27
- smiles entry: "COC(=O)c1cncc(/C=C/c2c(C)cc(O)cc2C)c1"
  assay target: "Serine/threonine-protein kinase BRSK2 (Homo sapiens)"
  reported property: "inhibition"
  quantitative readout: 1.09
- smiles entry: "CN(C)C(=O)O[C@H]1CN[C@H](C#Cc2cc3ncnc(Nc4ccc(OCc5cccc(F)c5)c(Cl)c4)c3s2)C1"
  assay target: "Serine/threonine-protein kinase BRSK2 (Homo sapiens)"
  reported property: "inhibition"
  quantitative readout: 2.38
- smiles entry: "COc1cc2ncn(-c3cc(OCc4ccccc4S(C)(=O)=O)c(C#N)s3)c2cc1OC"
  assay target: "Serine/threonine-protein kinase BRSK2 (Homo sapiens)"
  reported property: "inhibition"
  quantitative readout: 53.7
- smiles entry: "CCS(=O)(=O)c1ccc(OC)c(Nc2nccc(N(C)c3ccc4c(C)n[nH]c4c3)n2)c1"
  assay target: "Serine/threonine-protein kinase BRSK2 (Homo sapiens)"
  reported property: "inhibition"
  quantitative readout: 3.82
- smiles entry: "Nc1nccc(C#Cc2cncnc2Nc2ccc(OCc3cccc(F)c3)c(Cl)c2)n1"
  assay target: "Serine/threonine-protein kinase BRSK2 (Homo sapiens)"
  reported property: "inhibition"
  quantitative readout: 4.89
- smiles entry: "FC(F)(F)c1ccc(-c2nn3ncccc3c2-c2ccnc(Nc3ccc4c(c3)OCCO4)n2)cc1"
  assay target: "Serine/threonine-protein kinase BRSK2 (Homo sapiens)"
  reported property: "inhibition"
  quantitative readout: 6.76
